System: H3255
EXPERIMENTAL_PROTOCOL: relative viability (nuclei count vs DMSO), 5 days (fraction); higher = more cells survive
ASSAY_SETUP: first compound 0.005 µM
Here the recorded relative viability is given for each entry.
Could you respond with only the numeric value?

Reference set, count: 2
• CC1(C)CCC(c2ccc(Cl)cc2)=C(CN2CCN(c3ccc(C(=O)NS(=O)(=O)c4ccc(N[C@H](CCN5CCOCC5)CSc5ccccc5)c(S(=O)(=O)C(F)(F)F)c4)cc3)CC2)C1 [Navitoclax] + COc1cc2c(Oc3ccc(NC(=O)C4(C(=O)Nc5ccc(F)cc5)CC4)cc3F)ccnc2cc1OCCCN1CCOCC1 [Foretinib] (partner 0.25 µM) = 0.884
• CC1(C)CCC(c2ccc(Cl)cc2)=C(CN2CCN(c3ccc(C(=O)NS(=O)(=O)c4ccc(N[C@H](CCN5CCOCC5)CSc5ccccc5)c(S(=O)(=O)C(F)(F)F)c4)cc3)CC2)C1 [Navitoclax] + C[C@]1(O)C[C@@H](c2nc(-c3ccc4ccc(-c5ccccc5)nc4c3)c3c(N)nccn32)C1 [Linsitinib] (partner 1 µM) = 0.917

Let's switch to this compound now.
### Prompt Form field: relative viability recorded for CC1(C)CCC(c2ccc(Cl)cc2)=C(CN2CCN(c3ccc(C(=O)NS(=O)(=O)c4ccc(N[C@H](CCN5CCOCC5)CSc5ccccc5)c(S(=O)(=O)C(F)(F)F)c4)cc3)CC2)C1 [Navitoclax] + Cc1cc(Nc2cc(N3CCN(C)CC3)nc(Sc3ccc(NC(=O)C4CC4)cc3)n2)n[nH]1 [Tozasertib] (partner 0.1 µM) with H3255 (enter value)
### Response 0.532
